- Test system: Leishmania donovani
- method_description: Leishmania intramacrophage assay
- Assay type: functional, organism-based
- Design: scale not given: in the data most compounds retested in dose-response had high values
- details: 30.3 µM; […]
Screen size: about 69,000 compounds; about 1,000 (1.4%) showed an effect of 50% or more. The entries come from a sample that favours strong results as a whole.
Response field class: string, computed from recorded Percent Effect by ranges lower bin = under 10%, middle bin = from 10% up to 30%, upper bin = 30% and over

Solved cases below.
[[record]]
molecule = "CS(=O)(=O)Cc1nc(CNc2ccc(F)c(F)c2)cs1"
class_name = "lower bin"

[[record]]
molecule = "Cn1cc(CN2CCC(F)(F)C3(CCN(c4cccnc4)C3)C2)cn1.O=C(O)C(F)(F)F.O=C(O)C(F)(F)F (stereo not drawn)"
class_name = "lower bin"

[[record]]
molecule = "OC1(CNCc2ccc(F)c(C(F)(F)F)c2)CCSCC1"
class_name = "upper bin"

[[record]]
molecule = "c1ccc(C2=NOC3(CCN(Cc4c[nH]c5ccccc45)CC3)C2)cc1"
class_name = "upper bin"

[[record]]
molecule = "COc1cccc2c1OCC(CNC(=O)CN(C)C1CCCC1)C2 (stereo not drawn)"
class_name = "lower bin"


Kindly state the category for this molecule: Cc1cc(CN(C)C(=O)c2ccc(F)cc2F)no1
lower bin

Kindly state the category for this molecule: Cc1nccc(NCc2cncc3c2CCN(CC2CC2)C3)n1.Cl.Cl
middle bin

Kindly state the category for this molecule: CCc1ncnc2c1CCN(CC(=O)N(C)C)CC2.O=C(O)C(F)(F)F
lower bin

Kindly state the category for this molecule: O=C(Nc1ccc(CC(=O)N2CCCC2)cc1)NC1CC1
middle bin

Kindly state the category for this molecule: CCn1cnnc1CCNC(=O)C1COc2ccc(OC)cc2C1 (stereo not drawn)
middle bin

Kindly state the category for this molecule: CCN(C(=O)NCc1ccc(C)cc1OC)C(C)c1cccnc1 (stereo not drawn)
upper bin

Kindly state the category for this molecule: CN(C1CCCN(c2ccccn2)C1)S(C)(=O)=O (stereo not drawn)
middle bin

Kindly state the category for this molecule: Cc1cc(C(=O)NCc2cccnc2N2CCCC(O)C2)[nH]n1 (stereo not drawn)
middle bin

----------
- Tested on: Leishmania donovani
- method_description: Leishmania intramacrophage assay
- Format: functional, organism-based
- Design: scale not given: in the data most compounds retested in dose-response had high values
- details: 30.3 µM; […]
Among all 69,000 compounds or so, about 1,000 (1.4%) showed an effect of 50% or more. The entries come from a sample that favours strong results as a whole.
Flag rule - Percent Effect less than 30% flags yes; the remaining entries get no.

Check if Percent Effect falls below 30% for COc1cc(N2CC[C@@H]3O[C@@H](c4ccncn4)C[C@H]3C2)ncn1 .
no

----------
- System: Leishmania donovani
- method_description: Leishmania intramacrophage assay
- Type: functional, organism-based
- Design: scale not given: in the data most compounds retested in dose-response had high values
- details: 30.3 µM; […]
Out of some 69,000 compounds screened, about 1,000 (1.4%) showed an effect of 50% or more. This is one part of a sample in which strong results are shown more often than they occur.
measurement_name: Percent Effect (%)
Number in %, nothing else.

As a guide, the following entries are already answered.
[[record]]
molecule = "CC(=O)N1CCN(C(=O)NC(C)C)CC2(CC(=O)N(C)C2)C1 (stereo not given)"
target_of_assay = "Leishmania donovani"
value_units = "%"
recorded_value = 6.648

[[record]]
molecule = "CSCC(C)(O)CNS(=O)(=O)c1cccc(Cl)c1 (stereo not given)"
target_of_assay = "Leishmania donovani"
value_units = "%"
recorded_value = 18.54

[[record]]
molecule = "Cc1cc(C)n(CC2CCCCN2CC(=O)N(C)Cc2ccco2)n1 (stereo not given)"
target_of_assay = "Leishmania donovani"
value_units = "%"
recorded_value = -27.36

[[record]]
molecule = "Fc1cccc(N2CCCC3(CN(Cc4nccs4)CCO3)C2)c1.O=C(O)C(F)(F)F.O=C(O)C(F)(F)F (stereo not given)"
target_of_assay = "Leishmania donovani"
value_units = "%"
recorded_value = 41.24


# context switch: different molecule, same Percent Effect
Summary for this molecule, CC1(C)CN(Cc2csc(CS(C)(=O)=O)n2)Cc2ccccc21 : Percent Effect is -3.043

Cited source for all entries: ChEMBL document CHEMBL3988442
